Test system: Escherichia coli
Test: Antimicrobial activity against Escherichia coli DH10B harboring recombinant Aeromonas allosaccharophila AL-1 beta-lactamase PER2 by agar dilution method
Type: functional
Conditions: K-12 DH10B
Measured MIC of individual entries
Report as a plain number; the unit µg/mL is understood.

- MOLECULE: "CCN1CCN(C(=O)N[C@@H](C(=O)N[C@@H]2C(=O)N3[C@@H]2SC(C)(C)[C@@H]3C(=O)O)c2ccccc2)C(=O)C1=O [PIPERACILLIN]"
  MIC, µg/mL: 256
- MOLECULE: "CO/N=C(\\C(=O)N[C@@H]1C(=O)N2C(C(=O)[O-])=C(C[N+]3(C)CCCC3)CS[C@H]12)c1csc(N)n1"
  MIC, µg/mL: 32

For the next question, use this molecule.
Ask: Find the recorded MIC belonging to CO[C@@]1(NC(=O)C(C(=O)O)c2ccc(O)cc2)C(=O)N2C(C(=O)O)=C(CSc3nnnn3C)CO[C@@H]21 (stereo not given in full) [MOXALACTAM] and report it.
Result: 0.5

* * *

Measured MIC of individual entries
Tested on: Escherichia coli
Assay: Antimicrobial activity against Escherichia coli DH10B by agar dilution method
Type: functional
Settings: K-12 DH10B
Report as a plain number; the unit µg/mL is understood.

Here's what some known entries look like.
- MOLECULE: "CCN1CCN(C(=O)N[C@@H](C(=O)N[C@@H]2C(=O)N3[C@@H]2SC(C)(C)[C@@H]3C(=O)O)c2ccccc2)C(=O)C1=O [PIPERACILLIN]"
  MIC [µg/mL]: 1
- MOLECULE: "CC(=O)OCC1=C(C(=O)O)N2C(=O)[C@@H](NC(=O)Cc3cccs3)[C@H]2SC1 [CEPHALOTHIN]"
  MIC [µg/mL]: 2
- MOLECULE: "CO/N=C(\\C(=O)N[C@@H]1C(=O)N2C(C(=O)[O-])=C(C[n+]3cccc4c3CCC4)CS[C@H]12)c1csc(N)n1 [CEFPIROME]"
  MIC [µg/mL]: 0.06
- MOLECULE: "CO[C@@]1(NC(=O)C(C(=O)O)c2ccc(O)cc2)C(=O)N2C(C(=O)O)=C(CSc3nnnn3C)CO[C@@H]21 (some centres not stated) [MOXALACTAM]"
  MIC [µg/mL]: 0.12
- MOLECULE: "CC1(C)S[C@@H]2[C@H](NC(=O)[C@H](N)c3ccc(O)cc3)C(=O)N2[C@H]1C(=O)O [AMOXICILLIN]"
  MIC [µg/mL]: 4

For the next question, use this molecule.
Ask: Find the recorded MIC belonging to CC(C)(O/N=C(\C(=O)N[C@@H]1C(=O)N2C(C(=O)[O-])=C(C[n+]3ccccc3)CS[C@H]12)c1csc(N)n1)C(=O)O [CEFTAZIDIME] and report it.
Result: 0.5

* * *

Test system: Escherichia coli
Assay: Antimicrobial activity against Escherichia coli DH10B harboring recombinant Aeromonas allosaccharophila AL-1 beta-lactamase PER2 by agar dilution method
Format: functional
Details: K-12 DH10B
PROPERTY NAME: MIC (µg/mL)
Report as a plain number; the unit µg/mL is understood.

- COMPOUND: "C[C@@H](O)[C@H]1C(=O)N2C(C(=O)O)=C(S[C@@H]3CN[C@H](C(=O)N(C)C)C3)[C@H](C)[C@H]12 [MEROPENEM]"
  QUANTITY UNIT: "µg/mL"
  MIC: 0.03
- COMPOUND: "CO/N=C(\\C(=O)N[C@@H]1C(=O)N2C(C(=O)[O-])=C(C[n+]3cccc4c3CCC4)CS[C@H]12)c1csc(N)n1 [CEFPIROME]"
  QUANTITY UNIT: "µg/mL"
  MIC: 16
- COMPOUND: "CO/N=C(\\C(=O)N[C@@H]1C(=O)N2C(C(=O)O)=C(COC(C)=O)CS[C@H]12)c1csc(N)n1 [CEFOTAXIME]"
  QUANTITY UNIT: "µg/mL"
  MIC: 64

For the next question, use this compound.
Ask: Find the recorded MIC belonging to CO[C@@]1(NC(=O)Cc2cccs2)C(=O)N2C(C(=O)O)=C(COC(N)=O)CS[C@@H]21 [CEFOXITIN] and report it.
Result: 2

* * *

System: Escherichia coli
Assay: Antimicrobial activity against Escherichia coli DH10B harboring recombinant Aeromonas allosaccharophila AL-1 beta-lactamase PER1 by agar dilution method
Assay type: functional
Details: K-12 DH10B
Measured MIC of individual entries

Here's what some known entries look like.
- COMPOUND: "CO/N=C(\\C(=O)N[C@@H]1C(=O)N2C(C(=O)O)=C(COC(C)=O)CS[C@H]12)c1csc(N)n1 [CEFOTAXIME]"
  PROPERTY NAME: "MIC"
  MEASURED RESULT: "48 µg/mL"
- COMPOUND: "CCN1CCN(C(=O)N[C@@H](C(=O)N[C@@H]2C(=O)N3[C@@H]2SC(C)(C)[C@@H]3C(=O)O)c2ccccc2)C(=O)C1=O [PIPERACILLIN]"
  PROPERTY NAME: "MIC"
  MEASURED RESULT: "32 µg/mL"
- COMPOUND: "CO[C@@]1(NC(=O)C(C(=O)O)c2ccc(O)cc2)C(=O)N2C(C(=O)O)=C(CSc3nnnn3C)CO[C@@H]21 (some centres not stated) [MOXALACTAM]"
  PROPERTY NAME: "MIC"
  MEASURED RESULT: "1 µg/mL"
- COMPOUND: "C[C@@H](O)[C@H]1C(=O)N2C(C(=O)O)=C(S[C@@H]3CN[C@H](C(=O)N(C)C)C3)[C@H](C)[C@H]12 [MEROPENEM]"
  PROPERTY NAME: "MIC"
  MEASURED RESULT: "0.03 µg/mL"
- COMPOUND: "CO/N=C(\\C(=O)N[C@@H]1C(=O)N2C(C(=O)[O-])=C(C[N+]3(C)CCCC3)CS[C@H]12)c1csc(N)n1"
  PROPERTY NAME: "MIC"
  MEASURED RESULT: "16 µg/mL"

Ask: Find the recorded MIC belonging to CO/N=C(\C(=O)N[C@@H]1C(=O)N2C(C(=O)[O-])=C(C[n+]3cccc4c3CCC4)CS[C@H]12)c1csc(N)n1 [CEFPIROME] and report it.
Result: 16 µg/mL

Ask: Field entry: CC1(C)S[C@@H]2[C@H](NC(=O)[C@H](C(=O)O)c3ccsc3)C(=O)N2[C@H]1C(=O)O [TICARCILLIN]
Result: > 256 µg/mL

Ask: Field entry: C[C@H]1[C@H](NC(=O)/C(=N\OC(C)(C)C(=O)O)c2csc(N)n2)C(=O)N1S(=O)(=O)O [AZTREONAM]
Result: > 256 µg/mL

Ask: Field entry: CC1(C)S[C@@H]2[C@H](NC(=O)[C@H](N)c3ccc(O)cc3)C(=O)N2[C@H]1C(=O)O [AMOXICILLIN]
Result: > 256 µg/mL

Ask: Field entry: CO[C@@]1(NC(=O)Cc2cccs2)C(=O)N2C(C(=O)O)=C(COC(N)=O)CS[C@@H]21 [CEFOXITIN]
Result: 2 µg/mL

Ask: Field entry: CC(=O)OCC1=C(C(=O)O)N2C(=O)[C@@H](NC(=O)Cc3cccs3)[C@H]2SC1 [CEPHALOTHIN]
Result: > 256 µg/mL

Ask: Field entry: CC(C)(O/N=C(\C(=O)N[C@@H]1C(=O)N2C(C(=O)[O-])=C(C[n+]3ccccc3)CS[C@H]12)c1csc(N)n1)C(=O)O [CEFTAZIDIME]
Result: > 256 µg/mL

* * *

System: Escherichia coli
Experiment: Antimicrobial activity against Escherichia coli DH10B by agar dilution method
Assay type: functional
Details: K-12 DH10B
PROPERTY NAME: MIC (µg/mL)
Report as a plain number; the unit µg/mL is understood.

Here's what some known entries look like.
- CPD SMILES: "CO/N=C(\\C(=O)N[C@@H]1C(=O)N2C(C(=O)O)=C(COC(C)=O)CS[C@H]12)c1csc(N)n1"
  PROPERTY NAME: "MIC"
  MEASURED RESULT: 0.12
- CPD SMILES: "CO[C@@]1(NC(=O)Cc2cccs2)C(=O)N2C(C(=O)O)=C(COC(N)=O)CS[C@@H]21"
  PROPERTY NAME: "MIC"
  MEASURED RESULT: 1
- CPD SMILES: "C[C@@H](O)[C@H]1C(=O)N2C(C(=O)O)=C(S[C@@H]3CN[C@H](C(=O)N(C)C)C3)[C@H](C)[C@H]12"
  PROPERTY NAME: "MIC"
  MEASURED RESULT: 0.06

Ask: Please tell me: MIC of CC1(C)S[C@@H]2[C@H](NC(=O)[C@H](C(=O)O)c3ccsc3)C(=O)N2[C@H]1C(=O)O , system Escherichia coli?
Result: 4
